Here we gather pIC50 data for UniProt:O14684 reported by several publications.
Sequence (O14684 whole entry): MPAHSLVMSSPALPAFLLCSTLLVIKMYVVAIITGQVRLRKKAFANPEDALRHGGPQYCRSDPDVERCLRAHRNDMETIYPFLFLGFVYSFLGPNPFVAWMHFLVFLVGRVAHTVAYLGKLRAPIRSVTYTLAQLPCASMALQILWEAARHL
pIC50: −log10 of the molar value.

{"CPD_SMILES": "CCc1ccccc1COc1cccc(Cl)c1-c1nc(O)nc(-c2ccc(C(F)(F)F)cc2)n1", "pIC50": 7.85}
{"CPD_SMILES": "NS(=O)(=O)c1ccccc1NS(=O)(=O)/C=C/c1ccc2ccccc2c1", "pIC50": 6.72}
{"CPD_SMILES": "CO[C@](C)(C(=O)NCc1ccc(Cl)c(-c2nc(O)nc(-c3ccc(C(C)(F)F)cc3)n2)c1)C(F)(F)F", "pIC50": 9.30}
{"CPD_SMILES": "CCS(=O)(=O)NCc1ccc(Cl)c(-c2nc(O)nc(-c3ccc(C(F)(F)F)cc3)n2)c1", "pIC50": 9.00}
{"CPD_SMILES": "CC(C)(C)C#Cc1ccc(C(=O)NS(=O)(=O)c2ccccc2S(N)(=O)=O)cc1OCC(F)F", "pIC50": 7.60}
{"CPD_SMILES": "Cc1nc(-c2ccccc2)sc1C(=O)NS(=O)(=O)c1ccccc1S(N)(=O)=O", "pIC50": 6.54}
{"CPD_SMILES": "NS(=O)(=O)c1cc(F)ccc1NS(=O)(=O)/C=C/c1cccc(C(F)(F)F)c1", "pIC50": 6.57}
